System: BEN
measurement_notes: relative viability (nuclei count vs DMSO), 5 days (fraction); higher = more cells survive
run_conditions: first compound 2.53 µM
Note to self: relative viability under 0.6 means yes (1), ties and anything higher get no (0).

Field: example entries. Status: answers known.
[
  {
    "molecule": "Cc1cnc(-c2cnc(NCCNc3ccc(C#N)cn3)nc2-c2ccc(Cl)cc2Cl)[nH]1 + CS(=O)(=O)CCNCc1ccc(-c2ccc3ncnc(Nc4ccc(OCc5cccc(F)c5)c(Cl)c4)c3c2)o1 [Lapatinib] (partner 2 µM)",
    "class": "no (0)"
  },
  {
    "molecule": "Cc1cnc(-c2cnc(NCCNc3ccc(C#N)cn3)nc2-c2ccc(Cl)cc2Cl)[nH]1 + O=C(c1cc(Cc2n[nH]c(=O)c3ccccc23)ccc1F)N1CCN(C(=O)C2CC2)CC1 [Olaparib] (partner 8 µM)",
    "class": "no (0)"
  },
  {
    "molecule": "Cc1cnc(-c2cnc(NCCNc3ccc(C#N)cn3)nc2-c2ccc(Cl)cc2Cl)[nH]1 + Cc1cc(Nc2cc(N3CCN(C)CC3)nc(Sc3ccc(NC(=O)C4CC4)cc3)n2)n[nH]1 [Tozasertib] (partner 0.1 µM)",
    "class": "yes (1)"
  },
  {
    "molecule": "Cc1cnc(-c2cnc(NCCNc3ccc(C#N)cn3)nc2-c2ccc(Cl)cc2Cl)[nH]1 + N=C(N)NC(=N)NCCc1ccccc1 [Phenformin] (partner 250 µM)",
    "class": "yes (1)"
  }
]

Q: # TODO verify relative viability < 0.6 strictly for this molecule: Cc1cnc(-c2cnc(NCCNc3ccc(C#N)cn3)nc2-c2ccc(Cl)cc2Cl)[nH]1 + C[C@]1(O)C[C@@H](c2nc(-c3ccc4ccc(-c5ccccc5)nc4c3)c3c(N)nccn32)C1 [Linsitinib] (partner 1 µM)
A: no (0)
